B1: Zinc finger homeobox protein 3, residues 2643 to 2698; numbered along this chain, Q15911 (parent)
chain: RLRTTITPEQLEILYQKYLLDSNPTRKMLDHIAHEVGLKKRVVQVWFQNTRARERK

- Variants of: B1
- protocol text: abundance fitness (aPCA) (normalised: wild type 0, dead -1); higher = more abundant; growth selection in yeast, the domain comes from the species named
- condition details: Homo sapiens
Class key for abundance fitness values: c1 (below -0.4), c2 (-0.4 to below -0.1), c3 (-0.1 or more)

Query block: Would you mind sorting A33N into the appropriate category?
Result block: c1

Query block: Would you mind sorting L14R into the appropriate category?
Result block: c1

Query block: Would you mind sorting A52P into the appropriate category?
Result block: c1

Query block: Would you mind sorting H31L into the appropriate category?
Result block: c3

Query block: Would you mind sorting A52K into the appropriate category?
Result block: c3

Query block: Would you mind sorting K27M into the appropriate category?
Result block: c2

Query block: Would you mind sorting I32W into the appropriate category?
Result block: c2

Query block: Would you mind sorting W46P into the appropriate category?
Result block: c1

Query block: Would you mind sorting P8E into the appropriate category?
Result block: c2

Query block: Would you mind sorting L11T into the appropriate category?
Result block: c2

Query block: Would you mind sorting E9V into the appropriate category?
Result block: c2

Query block: Would you mind sorting L19R into the appropriate category?
Result block: c3

Query block: Would you mind sorting T4S into the appropriate category?
Result block: c2

Query block: Would you mind sorting E35M into the appropriate category?
Result block: c1

Query block: Would you mind sorting L38Y into the appropriate category?
Result block: c1

Query block: Would you mind sorting L2E into the appropriate category?
Result block: c3

Query block: Would you mind sorting V42G into the appropriate category?
Result block: c1

Query block: Would you mind sorting T4W into the appropriate category?
Result block: c1

Query block: Would you mind sorting Q44M into the appropriate category?
Result block: c2

Query block: Would you mind sorting L14N into the appropriate category?
Result block: c1

Query block: Would you mind sorting K40S into the appropriate category?
Result block: c3

Query block: Would you mind sorting R3F into the appropriate category?
Result block: c3

Query block: Would you mind sorting K56A into the appropriate category?
Result block: c3

Query block: Would you mind sorting N23W into the appropriate category?
Result block: c2

Query block: Would you mind sorting R51Y into the appropriate category?
Result block: c3

Query block: Would you mind sorting E9P into the appropriate category?
Result block: c2

Query block: Would you mind sorting P8M into the appropriate category?
Result block: c3

Query block: Would you mind sorting L20A into the appropriate category?
Result block: c2

Query block: Would you mind sorting Q16G into the appropriate category?
Result block: c2

Query block: Would you mind sorting E9T into the appropriate category?
Result block: c2

Query block: Would you mind sorting Q44R into the appropriate category?
Result block: c2

Query block: Would you mind sorting T5N into the appropriate category?
Result block: c2

Query block: Would you mind sorting F47Y into the appropriate category?
Result block: c2

Query block: Would you mind sorting Q16Y into the appropriate category?
Result block: c1

Query block: Would you mind sorting K17R into the appropriate category?
Result block: c3

Query block: Would you mind sorting L19P into the appropriate category?
Result block: c1

Query block: Would you mind sorting P24I into the appropriate category?
Result block: c1

Query block: Would you mind sorting K40T into the appropriate category?
Result block: c3

Query block: Would you mind sorting P8G into the appropriate category?
Result block: c3

Query block: Would you mind sorting L14P into the appropriate category?
Result block: c1

Query block: Would you mind sorting E12L into the appropriate category?
Result block: c2

Query block: Would you mind sorting K17W into the appropriate category?
Result block: c3

Query block: Would you mind sorting R26S into the appropriate category?
Result block: c3

Query block: Would you mind sorting V43M into the appropriate category?
Result block: c1

Query block: Would you mind sorting L19W into the appropriate category?
Result block: c2

Query block: Would you mind sorting I13P into the appropriate category?
Result block: c1
